- Assay Summary: Acute toxicity (LD50) p.o. in mice
- Run Conditions: mouse, in vivo, po, hydrochloride
Experimental Readout: LD50

Sure, the documented LD50 for COc1cc2c(cc1OC)C(C)Cn1c-2cc(=Nc2ccccc2C)n(C)c1=O (stereo not shown) is 2500 mg/kg
